- study-system: Apelin receptor (Homo sapiens) (UniProt P35414)
- assay-details: potency against CXCR6 with APJ panel – cell-based, beta-arrestin, DiscoveRx, uHTS hits, dose response (AID 624129)
- condition-details: CXCR6 beta-arrestin (DiscoveRx) antagonist cell assay, APJ, dose range 1, mean IC50 across replicates
pIC50: −log10 of the molar value.
Listing of entries alongside the reported pIC50.
assay-endpoint: pIC50

C/C(=N\NC(=O)C(C)Oc1ccc([N+](=O)[O-])cc1)c1ccccn1 (stereo not given) ... 5.09
COc1ccc(OC)c(/C=C/c2ccc3cccc(O)c3n2)c1 ... 5.08
CC(=O)Nc1ccc(Sc2ccc([N+](=O)[O-])o2)cc1 ... 4.84

----------
Consider the following compounds and their measured pIC50 readings.
- study-system: C-X-C chemokine receptor type 6 (Homo sapiens) (UniProt O00574)
- Sequence (O00574 whole entry, looked up): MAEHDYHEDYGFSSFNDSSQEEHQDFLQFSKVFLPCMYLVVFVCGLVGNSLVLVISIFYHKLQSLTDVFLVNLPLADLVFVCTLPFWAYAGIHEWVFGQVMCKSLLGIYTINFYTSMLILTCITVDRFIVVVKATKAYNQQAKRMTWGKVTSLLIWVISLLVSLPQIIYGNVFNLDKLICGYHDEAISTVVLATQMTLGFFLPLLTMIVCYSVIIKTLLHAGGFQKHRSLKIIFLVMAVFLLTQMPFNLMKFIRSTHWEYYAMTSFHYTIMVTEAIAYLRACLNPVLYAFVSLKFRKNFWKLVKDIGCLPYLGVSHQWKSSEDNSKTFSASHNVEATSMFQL
- assay-details: potency against CXCR6 with APJ panel – cell-based, beta-arrestin, DiscoveRx, uHTS hits, dose response (AID 624129)
- condition-details: CXCR6 beta-arrestin (DiscoveRx) antagonist cell assay, CXCR6, run 2, dose range 2
pIC50: −log10 of the molar value.
assay-endpoint: pIC50

O=C(NC(=S)N1CCN(c2ccc(C(F)(F)F)cc2[N+](=O)[O-])CC1)c1cccs1 ... 4.81
C=CCSC1=N/C(=C\c2cc(OCC)c(OC(C)=O)c([N+](=O)[O-])c2)C(=O)S1 ... 4.48
O=C(NNC(=O)c1cc(-c2ccccc2)nn1-c1ccccc1)c1ccccc1 ... 4.90
COc1ccc(-c2csc(Cc3nc(O)cs3)n2)cc1 ... 5.41
Cc1ccc(NS(=O)(=O)c2cc([N+](=O)[O-])ccc2NNC(=S)Nc2cc(C)ccc2C)c(C)c1 ... 4.35
Cn1c(=O)n(C)c2cc([N+](=O)[O-])c(N3CCN(C(=O)c4cccc(Cl)c4)CC3)cc21 ... 4.96
CS(=O)(=O)c1ccc(C(=O)OCC(=O)N2CCN(CCC3CCCCC3)CC2)cc1[N+](=O)[O-] ... 4.93
COc1cc(C2C(C#N)=C(N)Oc3n[nH]c(-c4cccnc4)c32)cc(Br)c1O (configuration not stated) ... 4.48
O=C1CC(Sc2nnnn2-c2ccccc2)C(=O)N1c1cccc(Cl)c1 (configuration not stated) ... 4.92
C=CC[n+]1c(-c2ccc(Cl)cc2Cl)csc1Nc1c(C)n(C)n(-c2ccccc2)c1=O ... 4.29
CC(=O)NS(=O)(=O)c1ccc(Nc2ccc([N+](=O)[O-])c3nonc23)cc1 ... 4.24
C/C(=N\NC(=O)C(C)Oc1ccc([N+](=O)[O-])cc1)c1ccccn1 (configuration not stated) ... 5.65
COc1cc(C2C(C#N)=C(N)Oc3n[nH]c(-c4cccs4)c32)cc(OC)c1O (configuration not stated) ... 4.23
CC1=C(C)CC2C(C1)C(=O)c1ccc(Br)cc1S2(=O)=O (configuration not stated) ... 4.63
COc1cccc(-n2nc(C#N)c(Cl)cc2=O)c1 ... 4.92
Cc1cc(Cl)n2c(nc3cc(F)c(F)cc32)c1C#N ... 5.22
CCCSc1cc(NCCOC(=O)CCC)c([N+](=O)[O-])c2nonc12 ... 4.75
CC(Oc1cccc(Cl)c1)C(=O)Nc1nc(-c2ccccn2)cs1 (configuration not stated) ... 5.21
O=C(/C=C/c1cccc([N+](=O)[O-])c1)c1ccc([N+](=O)[O-])o1 ... 5.12
COc1ccc(-c2c(C(=O)c3ccccc3)[nH]c(N)c2C(=O)c2ccc(Br)cc2)cc1OC ... 4.73
COC(=O)/C=C\C(=O)Nc1cccc([N+](=O)[O-])c1 ... 4.82
COc1ccc(-n2nnnc2S(=O)(=O)CC(=O)N2CCCCC2)cc1 ... 4.73
COc1cccc(/C=C2/CCC(CN(C)C)C2=O)c1 (configuration not stated) ... 4.74
COC(=O)c1ccc(/C=C(\C#N)C(=O)NC(C)c2ccccc2)cc1 (configuration not stated) ... 4.84
O=C1c2cccc3c([N+](=O)[O-])ccc(c23)C(=O)N1c1ccccn1 ... 4.62
NC(=S)N/N=C/c1ncc(C(F)(F)F)cc1Cl ... 5.37
COc1ccc(C)c(-n2c(=O)n(Cc3ccccc3)c(=O)c3[nH]cnc32)c1 ... 5.12
CC(=O)OCCCNc1cc(Sc2nc3ccccc3s2)c2nonc2c1[N+](=O)[O-] ... 5.03
O=C(Nc1nc(-c2ccccn2)cs1)Nc1ccc(F)cc1F ... 5.16
COc1ccc(C2CC(c3c(O)n(CCc4ccccc4)c(=O)[nH]c3=O)=NN2)cc1OC (configuration not stated) ... 5.06
S=C(N/N=C/c1ccccc1)N1CCOCC1 ... 5.32
CC1=C(CO)C(=O)OC([C@@H](C)C2CC[C@H]3C4C[C@H]5O[C@]56[C@@H](O)C=CC(=O)[C@]6(C)C4CC[C@]23C)C1 (some centres not stated) ... 4.80
CCCNC(=O)c1nnsc1S(=O)(=O)c1ccc(Cl)cc1 ... 4.84
Cc1ccc(O)c(C(=O)CC(=O)c2ccc(Cl)cc2)c1 ... 4.78
Cc1ccccc1CS(=O)(=O)c1ncc(Cl)c(C(=O)Nc2ccc(F)cc2)n1 ... 4.72
CCC1=NN(C(=O)c2ccc([N+](=O)[O-])cc2)C(O)(c2ccccc2)C1 (configuration not stated) ... 4.19
COc1ccc(C(=O)/C=C/Sc2nc3ccccc3o2)cc1 ... 4.17
COC(=O)c1ccc(NC(=O)c2nc(S(=O)(=O)Cc3cccc(C)c3)ncc2Cl)cc1 ... 4.76
CCc1nnc(NS(=O)(=O)c2ccc(Nc3ccc([N+](=O)[O-])c4nonc34)cc2)s1 ... 4.42
